# study_system: kinases of Table 5 (Homo sapiens, UniProt P37173)
# Sequence (P37173 23-567): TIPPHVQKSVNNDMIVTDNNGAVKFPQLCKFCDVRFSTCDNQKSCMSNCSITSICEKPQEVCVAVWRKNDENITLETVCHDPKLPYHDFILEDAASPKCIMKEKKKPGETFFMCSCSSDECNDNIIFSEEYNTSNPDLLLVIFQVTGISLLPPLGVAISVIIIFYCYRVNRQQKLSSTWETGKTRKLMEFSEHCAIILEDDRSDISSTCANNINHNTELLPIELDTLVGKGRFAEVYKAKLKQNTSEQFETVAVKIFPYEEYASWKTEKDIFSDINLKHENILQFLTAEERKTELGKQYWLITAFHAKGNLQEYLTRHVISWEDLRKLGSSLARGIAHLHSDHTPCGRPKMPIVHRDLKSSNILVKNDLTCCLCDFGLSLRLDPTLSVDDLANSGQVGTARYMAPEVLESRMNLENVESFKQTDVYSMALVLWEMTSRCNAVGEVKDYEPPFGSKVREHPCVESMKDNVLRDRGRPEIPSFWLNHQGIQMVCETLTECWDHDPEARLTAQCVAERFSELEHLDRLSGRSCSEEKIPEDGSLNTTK
# test_method_notes: Further analysis of a plurality of inhibitors and a plurality of kinases (Table 5 inhibition results)
# Type: biochemical
# Set-up: scale not given here
# run_conditions: kinase TGFBR2 (Part I, plate C7, Domain 1); inhibitor 100 uM
# From the text: The wash solution is then discarded.
# Lookup of reported Inhibition Results (Level) keyed by entry

1) N#C/C(=C/c1ccc(O)c(O)c1)C(=O)NCc1ccccc1 [AG 490]: 2
2) CC(=O)c1c(O)c(C)c(O)c(Cc2c(O)c3c(c(C(=O)/C=C/c4ccccc4)c2O)OC(C)(C)C=C3)c1O [Rottlerin (Mallotoxin)]: 2
3) O=S(=O)(NCCNC/C=C/c1ccc(Br)cc1)c1cccc2cnccc12 [H-89]: 2

The measured Inhibition Results (Level) associated with Cn1cc(C2=C(c3cn(CCCSC(=N)N)c4ccccc34)C(=O)NC2=O)c2ccccc21 [Ro-31-8220] reads 2

The measured Inhibition Results (Level) associated with CC(C)(C)n1nc(-c2ccc(Cl)cc2)c2c(N)ncnc21 [PP2] reads 2

The measured Inhibition Results (Level) associated with COc1cc2ncnc(Nc3cccc(Cl)c3)c2cc1OC [AG 1478] reads 2

The measured Inhibition Results (Level) associated with O=c1c(-c2ccc(O)cc2)coc2cc(O)cc(O)c12 [Genistein] reads 2

The measured Inhibition Results (Level) associated with O=c1c(O)c(-c2ccc(O)c(O)c2)oc2cc(O)cc(O)c12 [Quercetin] reads 0

###

# study_system: kinases of Table 5 (Homo sapiens)
# test_method_notes: Further analysis of a plurality of inhibitors and a plurality of kinases (Table 5 inhibition results)
# Assay type: biochemical
# Set-up: scale not given here
# run_conditions: kinase ITK (Part I, plate E4, Domain 0); inhibitor 100 uM
readout: Inhibition Results (Level)
Respond with the number and no other words.

# annotated cases, reported Inhibition Results (Level) shown
1. O=c1c(-c2ccc(O)cc2)coc2cc(O)cc(O)c12: 2
2. CC(=O)c1c(O)c(C)c(O)c(Cc2c(O)c3c(c(C(=O)/C=C/c4ccccc4)c2O)OC(C)(C)C=C3)c1O: 1

Lab note: next compound to report on.
The measured Inhibition Results (Level) associated with `Cn1cc(C2=C(c3cn(CCCSC(=N)N)c4ccccc34)C(=O)NC2=O)c2ccccc21` reads 2

###

# study_system: kinases of Table 5 (Homo sapiens)
# test_method_notes: Further analysis of a plurality of inhibitors and a plurality of kinases (Table 5 inhibition results)
# Format: biochemical
# Design: scale not given here
# run_conditions: kinase TLK2 (Part I, plate C8, Domain 1); inhibitor 100 uM
# Lookup of reported Inhibition Results (Level) keyed by entry
Respond with the number and no other words.

1. O=c1c(-c2ccc(O)cc2)coc2cc(O)cc(O)c12: 2
2. COc1cc2ncnc(Nc3cccc(Cl)c3)c2cc1OC: 2
3. N#C/C(=C/c1ccc(O)c(O)c1)C(=O)NCc1ccccc1: 2
4. CC(=O)c1c(O)c(C)c(O)c(Cc2c(O)c3c(c(C(=O)/C=C/c4ccccc4)c2O)OC(C)(C)C=C3)c1O: 2
5. CC(C)(C)n1nc(-c2ccc(Cl)cc2)c2c(N)ncnc21: 2
6. O=c1c(O)c(-c2ccc(O)c(O)c2)oc2cc(O)cc(O)c12: 0
7. Cn1cc(C2=C(c3cn(CCCSC(=N)N)c4ccccc34)C(=O)NC2=O)c2ccccc21: 1

Lab note: next compound to report on.
Tested on kinases of Table 5 (Homo sapiens): `O=S(=O)(NCCNC/C=C/c1ccc(Br)cc1)c1cccc2cnccc12` . Observed Inhibition Results (Level): 2

###

# Lookup of reported Inhibition Results (Level) keyed by entry
# study_system: kinases of Table 5 (Homo sapiens)
# test_method_notes: Further analysis of a plurality of inhibitors and a plurality of kinases (Table 5 inhibition results)
# Type: biochemical
# Design: scale not given here
# run_conditions: kinase MAP3K3 (Part I, plate A1, Domain 0); inhibitor 100 uM

1. COc1cc2ncnc(Nc3cccc(Cl)c3)c2cc1OC: 2
2. O=c1c(O)c(-c2ccc(O)c(O)c2)oc2cc(O)cc(O)c12: 0
3. O=c1c(-c2ccc(O)cc2)coc2cc(O)cc(O)c12: 2
4. CC(C)(C)n1nc(-c2ccc(Cl)cc2)c2c(N)ncnc21: 2
5. Cn1cc(C2=C(c3cn(CCCSC(=N)N)c4ccccc34)C(=O)NC2=O)c2ccccc21: 0
6. O=S(=O)(NCCNC/C=C/c1ccc(Br)cc1)c1cccc2cnccc12: 2
7. N#C/C(=C/c1ccc(O)c(O)c1)C(=O)NCc1ccccc1: 2

The measured Inhibition Results (Level) associated with `CC(=O)c1c(O)c(C)c(O)c(Cc2c(O)c3c(c(C(=O)/C=C/c4ccccc4)c2O)OC(C)(C)C=C3)c1O` reads 2

###

# study_system: kinases of Table 5 (Homo sapiens)
# test_method_notes: Further analysis of a plurality of inhibitors and a plurality of kinases (Table 5 inhibition results)
# Assay type: biochemical
# Parameters: scale not given here
# run_conditions: kinase PTK2B (Part I, plate G5, Domain 1); inhibitor 100 uM
readout: Inhibition Results (Level)
Respond with the number and no other words.

# annotated cases, reported Inhibition Results (Level) shown
1. Cn1cc(C2=C(c3cn(CCCSC(=N)N)c4ccccc34)C(=O)NC2=O)c2ccccc21: 2
2. N#C/C(=C/c1ccc(O)c(O)c1)C(=O)NCc1ccccc1: 2
3. COc1cc2ncnc(Nc3cccc(Cl)c3)c2cc1OC: 2
4. O=c1c(-c2ccc(O)cc2)coc2cc(O)cc(O)c12: 2
5. CC(C)(C)n1nc(-c2ccc(Cl)cc2)c2c(N)ncnc21: 2

The measured Inhibition Results (Level) associated with `O=S(=O)(NCCNC/C=C/c1ccc(Br)cc1)c1cccc2cnccc12` reads 1

The measured Inhibition Results (Level) associated with `CC(=O)c1c(O)c(C)c(O)c(Cc2c(O)c3c(c(C(=O)/C=C/c4ccccc4)c2O)OC(C)(C)C=C3)c1O` reads 2

The measured Inhibition Results (Level) associated with `O=c1c(O)c(-c2ccc(O)c(O)c2)oc2cc(O)cc(O)c12` reads 1

###

# study_system: kinases of Table 5 (Homo sapiens, UniProt P21802)
# Sequence (P21802 22-821): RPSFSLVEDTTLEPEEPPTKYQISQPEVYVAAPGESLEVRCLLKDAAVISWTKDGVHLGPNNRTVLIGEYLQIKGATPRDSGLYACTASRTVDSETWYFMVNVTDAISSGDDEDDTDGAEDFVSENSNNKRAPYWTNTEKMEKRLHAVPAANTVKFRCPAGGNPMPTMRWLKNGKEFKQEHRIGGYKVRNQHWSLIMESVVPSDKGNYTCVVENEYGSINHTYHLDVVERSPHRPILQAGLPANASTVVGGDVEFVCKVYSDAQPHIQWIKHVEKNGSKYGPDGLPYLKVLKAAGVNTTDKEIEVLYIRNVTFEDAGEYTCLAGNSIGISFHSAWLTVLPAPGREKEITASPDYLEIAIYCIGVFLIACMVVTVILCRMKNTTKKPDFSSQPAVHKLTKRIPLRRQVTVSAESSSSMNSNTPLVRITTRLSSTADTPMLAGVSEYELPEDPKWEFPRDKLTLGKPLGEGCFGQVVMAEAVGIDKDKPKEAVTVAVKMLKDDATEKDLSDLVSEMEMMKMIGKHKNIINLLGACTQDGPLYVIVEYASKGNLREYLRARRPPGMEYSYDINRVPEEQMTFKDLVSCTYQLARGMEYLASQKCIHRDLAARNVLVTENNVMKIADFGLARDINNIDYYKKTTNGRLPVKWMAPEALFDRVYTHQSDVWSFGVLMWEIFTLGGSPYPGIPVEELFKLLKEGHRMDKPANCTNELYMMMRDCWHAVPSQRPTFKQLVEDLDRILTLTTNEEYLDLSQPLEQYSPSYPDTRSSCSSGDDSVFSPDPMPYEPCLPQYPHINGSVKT
# test_method_notes: Further analysis of a plurality of inhibitors and a plurality of kinases (Table 5 inhibition results)
# Format: biochemical
# Set-up: scale not given here
# run_conditions: kinase FGFR2; inhibitor 100 uM
# Lookup of reported Inhibition level keyed by entry
Respond with the number and no other words.

# annotated cases, reported Inhibition level shown
1. N#C/C(=C/c1ccc(O)c(O)c1)C(=O)NCc1ccccc1 [AG 490]: 2
2. Cn1cc(C2=C(c3cn(CCCSC(=N)N)c4ccccc34)C(=O)NC2=O)c2ccccc21 [Ro-31-8220]: 2
3. CC(C)(C)n1nc(-c2ccc(Cl)cc2)c2c(N)ncnc21 [PP2]: 2
4. O=c1c(-c2ccc(O)cc2)coc2cc(O)cc(O)c12 [Genistein]: 2

Lab note: next compound to report on.
The measured Inhibition level associated with COc1cc2ncnc(Nc3cccc(Cl)c3)c2cc1OC [AG 1478] reads 2

###

# study_system: kinases of Table 5 (Homo sapiens, UniProt Q9Y616)
# Sequence (Q9Y616 whole entry): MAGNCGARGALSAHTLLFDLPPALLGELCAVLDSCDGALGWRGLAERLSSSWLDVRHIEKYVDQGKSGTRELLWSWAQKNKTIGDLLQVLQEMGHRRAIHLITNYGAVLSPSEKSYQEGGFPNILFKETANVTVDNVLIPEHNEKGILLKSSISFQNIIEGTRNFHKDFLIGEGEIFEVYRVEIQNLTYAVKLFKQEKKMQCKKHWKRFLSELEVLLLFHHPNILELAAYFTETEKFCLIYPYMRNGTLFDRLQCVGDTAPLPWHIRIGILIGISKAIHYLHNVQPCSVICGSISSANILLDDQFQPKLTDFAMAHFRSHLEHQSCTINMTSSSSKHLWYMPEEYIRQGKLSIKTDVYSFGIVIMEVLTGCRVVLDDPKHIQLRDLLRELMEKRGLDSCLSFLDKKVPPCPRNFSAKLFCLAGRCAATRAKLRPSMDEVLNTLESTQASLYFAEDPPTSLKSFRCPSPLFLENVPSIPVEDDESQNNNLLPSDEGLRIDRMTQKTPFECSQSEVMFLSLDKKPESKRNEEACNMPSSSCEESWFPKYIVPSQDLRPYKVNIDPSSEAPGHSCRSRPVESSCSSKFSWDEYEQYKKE
# test_method_notes: Further analysis of a plurality of inhibitors and a plurality of kinases (Table 5 inhibition results)
# Assay type: biochemical
# Design: scale not given here
# run_conditions: kinase IRAK3 (Part I, plate C9, Domain 1); inhibitor 100 uM
readout: Inhibition Results (Level)
Respond with the number and no other words.

# annotated cases, reported Inhibition Results (Level) shown
1) CC(=O)c1c(O)c(C)c(O)c(Cc2c(O)c3c(c(C(=O)/C=C/c4ccccc4)c2O)OC(C)(C)C=C3)c1O [Rottlerin (Mallotoxin)]: 2
2) COc1cc2ncnc(Nc3cccc(Cl)c3)c2cc1OC [AG 1478]: 2

The measured Inhibition Results (Level) associated with O=c1c(-c2ccc(O)cc2)coc2cc(O)cc(O)c12 [Genistein] reads 2

The measured Inhibition Results (Level) associated with N#C/C(=C/c1ccc(O)c(O)c1)C(=O)NCc1ccccc1 [AG 490] reads 0

The measured Inhibition Results (Level) associated with O=c1c(O)c(-c2ccc(O)c(O)c2)oc2cc(O)cc(O)c12 [Quercetin] reads 0

The measured Inhibition Results (Level) associated with CC(C)(C)n1nc(-c2ccc(Cl)cc2)c2c(N)ncnc21 [PP2] reads 2
